- MEASURED_TARGET: Human Myelin Basic Protein (Homo sapiens, UniProt P02686)
- Sequence (P02686 135-304 limits assumed): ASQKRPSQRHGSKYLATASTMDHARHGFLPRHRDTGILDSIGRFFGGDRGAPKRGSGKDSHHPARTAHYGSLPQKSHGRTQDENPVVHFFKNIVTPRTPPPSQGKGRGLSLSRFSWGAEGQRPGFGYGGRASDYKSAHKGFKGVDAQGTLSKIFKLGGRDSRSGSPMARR
- EXPERIMENTAL_DETAILS: phage display, NGS count
Documented Count across a set of substances
Answer using only a numeral; do not append any unit.

SUBSTANCE	ENDPOINT	VAL
FDLLARK (peptide)	Count	6
RGHPSQL (peptide)	Count	6
MPLLELP (peptide)	Count	7

Let us examine a further case.
INPUT: Output Count of AQLGAFR (peptide)
OUTPUT: 6

====

- Tested on: Human MPZ
- Sequence (P25189 30-153 limits assumed): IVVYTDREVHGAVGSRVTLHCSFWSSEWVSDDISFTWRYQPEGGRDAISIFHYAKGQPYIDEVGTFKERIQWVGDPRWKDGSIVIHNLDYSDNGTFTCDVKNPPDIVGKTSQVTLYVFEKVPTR
- EXPERIMENTAL_DETAILS: Phage display library screening (Example 2, Python script analysis), binding to Human MPZ
- STATED_CONDITIONS: combined unique sequence count, Python/R script analysis
# note: boundary value 40 maps to criterion not met; Count below it maps to criterion met

Would you please look over these solved cases?
SUBSTANCE	DISCRETE_LABEL
STHEWRT (Human MPZ-binding peptide)	criterion not met
IKPPYTH (R3 Human MPZ-binding peptide)	criterion not met
YTPNWHFRWMPA (Human MPZ-binding peptide)	criterion not met

INPUT: For AYLEDWRSMSTR (Human MPZ-binding peptide) , is the recorded Count below the cut-off of 40?
OUTPUT: criterion not met

INPUT: Lab note: Count threshold 40. Does this substance come in strictly under it? KQPAMEN
OUTPUT: criterion met

INPUT: In plain terms, does DRNSVFW (R3 Human MPZ-binding peptide) come in under 40 for Count?
OUTPUT: criterion not met

INPUT: Dear reviewer, please state whether LPAESHW (Human MPZ-binding peptide) has Count strictly beneath 40.
OUTPUT: criterion not met

INPUT: Record LVLSNPR (Human MPZ-binding peptide) : is its Count strictly below 40?
OUTPUT: criterion not met

INPUT: Please determine if LWAKRDA (Human MPZ-binding peptide) is below 40 in terms of Count.
OUTPUT: criterion met

====

- Tested on: Human Myelin PLP
- EXPERIMENTAL_DETAILS: Phage display library screening (Example 2, Python script analysis), binding to Human Myelin PLP
- STATED_CONDITIONS: combined unique sequence count, Python/R script analysis
Some substances, each annotated with its measured Count.

SUBSTANCE	MEASURED_TARGET	ENDPOINT	VAL
YSQAISA (Myelin PLP-binding peptide)	Human Myelin PLP	Count	27
HKAPLGT (Myelin PLP-binding peptide)	Human Myelin PLP	Count	29
GWSTAIR (Myelin PLP-binding peptide)	Human Myelin PLP	Count	29
LNGISAL (Myelin PLP-binding peptide)	Human Myelin PLP	Count	32

INPUT: Hello, please tell me recorded Count for this one: KGVIPAT (Myelin PLP-binding peptide)
OUTPUT: 27

INPUT: Specify measured Count for ASLTLAL (Myelin PLP-binding peptide) .
OUTPUT: 26

====

- Tested on: Laminin 421/521
- EXPERIMENTAL_DETAILS: Phage display library screening (Example 2), NEB laminin-binding peptides
- Set-up: species or system human
- STATED_CONDITIONS: Laminin 421/521, not 211 and 411; combined unique sequence count, Python/R script analysis
ENDPOINT: Count
Enter a number only.

SUBSTANCE	Count
CGLATNKSC (Laminin 421/521-binding peptide)	39
GHRTLVTSERYL (Laminin 421/521-binding peptide)	38
GIVPSRHTTGLG (Laminin 421/521-binding peptide)	28

INPUT: Lab note: Laminin 421/521 assay, enter Count for NHDQGSLTRWRS (Laminin 421/521-binding peptide) here
OUTPUT: 31

INPUT: Provide Count, system Laminin 421/521, entry AQRMNQA (Laminin 421/521-binding peptide)
OUTPUT: 38

INPUT: For Laminin 421/521, give the measured Count of the entry WQWRSTELGYRY (Laminin 421/521-binding peptide)
OUTPUT: 36
